Data origin: PubChem BioAssay

Please go through the items and note down their inhibition.
test: loss of swimming-algae plug formation – whole organism, Chlamydomonas reinhardtii, WT vs cilia-less mutant, absorbance, 96-well, primary screen (AID 463189); settings: Chlamydomonas reinhardtii gravitaxis, OD600 absorbance, 2 days; at 10 µM; stronger effect = higher value;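 also: 0% = wild type cc124 cells in DMSO and 100% = ciliumless bld1 mutant cells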
Give just the number in %; leave the unit off.

[in] Assign inhibition to the following record: Nc1c(C(=O)NCc2ccco2)c2nc3ccccc3nc2n1CCN1CCCCC1
[out] 131

[in] Assign inhibition to the following record: c1ccc(Cn2ccnc2)cc1
[out] -7.16

[in] Assign inhibition to the following record: O=C(O)Cc1cnc[nH]1
[out] 2.27

[in] Assign inhibition to the following record: COc1ccc2c(c1)c(C(=O)O)c(C)n2CC(C)C
[out] 36.3

[in] Assign inhibition to the following record: C[C@@H]1O[C@H](C[N+](C)(C)C)CS1
[out] 4.65

[in] Assign inhibition to the following record: Nc1c(C(=O)NCc2ccco2)c2nc3ccccc3nc2n1Cc1ccc(F)cc1
[out] 34.8

[in] Assign inhibition to the following record: CC1(C)NCCN2C(=O)CSC21 (stereo not given)
[out] 9.56

[in] Assign inhibition to the following record: CCN(CC)CCN=C(C)c1c(O)n(-c2ccccc2OC)c(=O)[nH]c1=O
[out] -0.4

[in] Assign inhibition to the following record: COc1ccc(Cn2c(O)c(C=NCCCn3ccnc3)c(=O)[nH]c2=O)cc1
[out] -4.22

[in] Assign inhibition to the following record: CCOc1ccc(-n2c(O)c(C=NCCN3CCNCC3)c(=O)[nH]c2=O)cc1
[out] 8.26

[in] Assign inhibition to the following record: CN(C)[C@@H]1C(=O)C(C(N)=O)=C(O)[C@@]2(O)C(=O)C3=C(O)c4c(O)ccc(Cl)c4[C@@](C)(O)C3C[C@@H]12 (stereo not given in full)
[out] 51.9

[in] Assign inhibition to the following record: CC12NC(Cc3ccccc31)c1ccccc12 (stereo not given)
[out] 2.33

[in] Assign inhibition to the following record: CCCN(CCC)C1CCc2ccc(O)cc2C1 (stereo not given)
[out] 1.06

[in] Assign inhibition to the following record: O=C(CCCN1CCC2(CC1)C(=O)N(CCc1ccc(N=C=S)cc1)CN2c1ccccc1)c1ccc(F)cc1
[out] 2.53

[in] Assign inhibition to the following record: COc1cc(CCN)ccc1O
[out] 2.21
